# maps each entry to its TGI
System: HOP-92 NSCLC
Assay: NCI tumour cell line growth inhibition, 48 h

compound: CCCC#CC(O)(C(=O)OC1CCN(C)CC1)C1CCCCC1 (configuration not stated)
TGI: > 100 µM
//
compound: N#CC(C(=O)CCC(=O)Nc1ccc(Cl)cc1)c1ccccc1Cl (configuration not stated)
TGI: > 100 µM
//
compound: N=C1C(c2nc3ccccc3s2)=C(O)CN1c1ccc(Cl)cc1Cl
TGI: 38.1 µM
//
compound: O=c1[nH]c2ccc(CC(=S)N3CCN(c4ccccc4)CC3)cc2o1
TGI: > 100 µM
//
compound: COc1ccc(C[C@H]2COC(=O)[C@@H]2Cc2ccc(O)cc2)cc1OC
TGI: > 100 µM
//
compound: Nc1nc(N)c2nnn(C[C@H]3CC[C@@H](CO)C3)c2n1
TGI: > 100 µM
//
compound: COc1ccc(C2SCC(=O)N2NC(=O)C(C)Oc2ccccc2Cl)cc1 (configuration not stated)
TGI: 77.4 µM
